- Tested on: MCF7
- assay_protocol: Cytotoxicity against human MCF7 cells measured after 48 hrs by MTT assay
- Assay type: functional, cell-based
- test_settings: MCF7, 48 h
property_name: IC50

>>> result("COc1ccc(-c2oc3cc(OC)cc(OC)c3c(=O)c2OCCCCCN2C[C@H](O)[C@@H](O)[C@H](O)[C@H]2CO)cc1")
"> 10 µM"
>>> result("COc1ccc(-c2oc3cc(OC)cc(OC)c3c(=O)c2OCCCCCCCCCCCN2C[C@H](O)[C@@H](O)[C@H](O)[C@H]2CO)cc1")
"3.6 µM"
>>> result("OC[C@H]1NC[C@H](O)[C@@H](O)[C@@H]1O [DUVOGLUSTAT]")
"> 10 µM"
>>> result("O=c1c(O)c(-c2ccc(O)cc2)oc2cc(O)cc(O)c12 [KAEMPFEROL]")
"> 10 µM"
>>> result("COc1ccc(-c2oc3cc(OC)cc(OC)c3c(=O)c2OCCCCCCCCN2C[C@H](O)[C@@H](O)[C@H](O)[C@H]2CO)cc1")
"> 10 µM"
